Calls of active or inactive are those of the source.
measured quantity: Kd

Request: Recorded Kd for O=C(O)[C@]1(Cc2cccc(Nc3nccs3)n2)CC[C@@H](Oc2cccc(Cl)c2F)CC1 [MK-5108] with Adenosine kinase (Homo sapiens, UniProt P55263), please?
Result: > 30 µM (inactive)

Request: Recorded Kd for CC[C@H](Nc1ncnc2[nH]cnc12)c1nc2cccc(F)c2c(=O)n1-c1ccccc1 [IDELALISIB] with Adenosine kinase (Homo sapiens, UniProt P55263), please?
Result: > 30 µM (inactive)

Request: Recorded Kd for COC(=O)[C@@]1(O)C[C@H]2O[C@]1(C)n1c3ccccc3c3c4c(c5c6ccccc6n2c5c31)C(=O)NC4 [K-252A] with Adenosine kinase (Homo sapiens, UniProt P55263), please?
Result: > 30 µM (inactive)

Request: Recorded Kd for Cc1cc([C@@H](C)Nc2ccccc2C(=O)O)c2nc(N3CCOCC3)cc(=O)n2c1 [AZD-6482] with Adenosine kinase (Homo sapiens, UniProt P55263), please?
Result: > 30 µM (inactive)

Request: Recorded Kd for CC(=O)Nc1cccc(-n2c(=O)n(C3CC3)c(=O)c3c(Nc4ccc(I)cc4F)n(C)c(=O)c(C)c32)c1 [TRAMETINIB] with Adenosine kinase (Homo sapiens, UniProt P55263), please?
Result: > 30 µM (inactive)

Request: Recorded Kd for Cn1cc(-c2ccc(F)c(C(F)(F)F)c2)nc1C1CCN(c2ncnc3[nH]ncc23)CC1 [LY-2584702] with Adenosine kinase (Homo sapiens, UniProt P55263), please?
Result: > 30 µM (inactive)

Request: Recorded Kd for CC(C)Nc1cc(-c2c[nH]c(C(=O)N[C@H](CO)c3cccc(Cl)c3)c2)c(Cl)cn1 [ULIXERTINIB] with Adenosine kinase (Homo sapiens, UniProt P55263), please?
Result: > 30 µM (inactive)

Request: Recorded Kd for COc1cc2nccc(Oc3ccc(NC(=O)NC4CC4)c(Cl)c3)c2cc1C(N)=O [LENVATINIB] with Adenosine kinase (Homo sapiens, UniProt P55263), please?
Result: > 30 µM (inactive)

Request: Recorded Kd for C[C@@H](Nc1cc(F)cc(F)c1)c1cc(C(=O)N(C)C)cc2c(=O)cc(N3CCOCC3)oc12 [AZD-8186] with Adenosine kinase (Homo sapiens, UniProt P55263), please?
Result: > 30 µM (inactive)

Request: Recorded Kd for Cc1cc2c(F)c(Oc3ncnn4cc(OC[C@@H](C)OC(=O)[C@H](C)N)c(C)c34)ccc2[nH]1 [BRIVANIB ALANINATE] with Adenosine kinase (Homo sapiens, UniProt P55263), please?
Result: > 30 µM (inactive)

Request: Recorded Kd for CCn1c(=O)c(-c2cc[nH]n2)cc2c(C)nc(N)nc21 [VOXTALISIB] with Adenosine kinase (Homo sapiens, UniProt P55263), please?
Result: > 30 µM (inactive)

Request: Recorded Kd for Cn1cc(-c2ccc3nnc(C(F)(F)c4ccc5ncccc5c4)n3n2)cn1 [JNJ-38877605] with Adenosine kinase (Homo sapiens, UniProt P55263), please?
Result: > 30 µM (inactive)

Request: Recorded Kd for CCCS(=O)(=O)Nc1ccc(F)c(C(=O)c2c[nH]c3ncc(-c4ccc(Cl)cc4)cc23)c1F [VEMURAFENIB] with Adenosine kinase (Homo sapiens, UniProt P55263), please?
Result: > 30 µM (inactive)

Request: Recorded Kd for Nc1nc(N)c2nc(-c3cccc(O)c3)c(-c3cccc(O)c3)nc2n1 [TG100-115] with Adenosine kinase (Homo sapiens, UniProt P55263), please?
Result: > 30 µM (inactive)

Request: Recorded Kd for OCCn1cc(-c2cnc3nnn(Cc4ccc5ncccc5c4)c3n2)cn1 [PF-04217903] with Adenosine kinase (Homo sapiens, UniProt P55263), please?
Result: > 30 µM (inactive)

Request: Recorded Kd for O=c1sn(-c2cccc3ccccc23)c(=O)n1Cc1ccccc1 [TIDEGLUSIB] with Adenosine kinase (Homo sapiens, UniProt P55263), please?
Result: > 30 µM (inactive)

Request: Recorded Kd for CN(C)C(=O)c1cc2cnc(Nc3ccc(N4CCNCC4)cn3)nc2n1C1CCCC1 [RIBOCICLIB] with Adenosine kinase (Homo sapiens, UniProt P55263), please?
Result: > 30 µM (inactive)

The values you see were collected from ChEMBL document CHEMBL3991601.
